tested on: Helicobacter pylori; assay type: cell-based, Helicobacter pylori (HP-2, HP-4, HP-5); settings: strain 43579; 5 × MIC; ~1 × 10^8 CFU
MEASURED_METRIC: Frequency of resistant mutants (number of spontaneous mutants)

1. CCCCCCCCCCCC(=O)OCC(O)CO (stereo not shown) [Monolaurin, monolaurin]: < 1
2. CCCCCCCCCCCC(=O)O [Lauric Acid, lauric acid]: < 1
3. CCCCCCCCCC(=O)OCC(O)CO (stereo not shown) [Monocaprin, monocaprin]: < 1
4. CN(C)C1C(=O)C(C(N)=O)=C(O)C2(O)C(=O)C3=C(O)c4c(O)cccc4C(C)(O)C3CC12 (stereo not shown) [tetracycline, reference compound]: TNTC
